Biological target: yeast Gal4-DNA binding domain fused to the ligand binding domain of human RORγ (Homo sapiens)
Construct: host or cells: HEK293t
Sequence (P51449 269-508 limits assumed): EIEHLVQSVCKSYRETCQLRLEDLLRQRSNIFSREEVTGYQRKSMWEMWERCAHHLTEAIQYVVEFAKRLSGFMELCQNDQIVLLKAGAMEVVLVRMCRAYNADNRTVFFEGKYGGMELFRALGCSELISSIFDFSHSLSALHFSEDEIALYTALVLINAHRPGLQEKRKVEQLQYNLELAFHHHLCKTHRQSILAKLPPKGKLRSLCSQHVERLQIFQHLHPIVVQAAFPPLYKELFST
Experiment: RORγ Reporter Assay (Gal4)
Type: cell-based
Details: RORγ Reporter Assay (Gal4) at 0.1 μM; values given as lower bounds of ranges
Protocol: The activity of the compounds was evaluated using a Fluorescence Polarization (FP) Assay and, in most cases, a Th17 Assay and/or RORγ Reporter assay (also referred to as Gal4 assay). The FP assay is an in vitro assay monitoring binding within the ligand binding pocket. The RORγ and the Th17 assays are both cell-based assays monitoring functional activity of the compound assayed. […]
Parameter: Gal4 activity range @ 0.1 μM (% inhibition). Scope: all listed entries.
measure.name: Gal4 activity range @ 0.1 μM (% inhibition)

INSERT INTO measurements (compound, result) VALUES
  ('CC1(CNc2ncnc(N3CCOC[C@@H]3c3ccc(C(F)(F)F)cc3)c2F)CCCCC1O (stereo partly shown)', '>20 % inhibition'),
  ('Fc1c(NCC2(F)CCOCC2)ncnc1N1CCOC[C@@H]1c1ccc(C(F)(F)F)cc1', '>20 % inhibition'),
  ('CC(C)c1ccc(C2CCCN2c2ncnc(NCc3ccc(CC(N)=O)cc3)c2F)cc1 (stereo not shown)', '>80 % inhibition'),
  ('Fc1c(NCc2ccc(C(F)(F)F)nc2)ncnc1N1CCCC1c1ccc(C(F)(F)F)cc1 (stereo not shown)', '>20 % inhibition');
